GSK-3β (AA 1-420) (Homo sapiens) measurements of Ki, listed per entry.

Look over these answered cases.
COMPOUND: Fc1ccc2[nH]nc(Nc3nc(-c4ccccc4C(F)(F)F)nc4c3CNCC4)c2c1 [II-16]
TESTED_TARGET: GSK-3β (AA 1-420) (Homo sapiens)
Ki: < 100 nM

COMPOUND: Fc1ccc2[nH]nc(Nc3nc(-c4ccccc4C(F)(F)F)nc4c3CCCC4)c2c1 [II-8]
TESTED_TARGET: GSK-3β (AA 1-420) (Homo sapiens)
Ki: < 100 nM

COMPOUND: Cc1nc(-c2ccc(Cl)cc2Cl)nc(Nc2n[nH]c3ccccc23)c1C [II-32]
TESTED_TARGET: GSK-3β (AA 1-420) (Homo sapiens)
Ki: 100 to 1000 nM

COMPOUND: CCc1cc(Nc2cc(C)n[nH]2)nc(-c2ccccc2OC(F)(F)F)n1 [II-105]
TESTED_TARGET: GSK-3β (AA 1-420) (Homo sapiens)
Ki: < 100 nM

Could you share which Ki value was measured for c1ccc2c(Nc3ccn[nH]3)nc(-c3ccncc3)nc2c1 [III-64] ?
100 to 1000 nM

Could you share which Ki value was measured for Brc1cn[nH]c1Nc1nc(-c2ccccc2)nc2ccccc12 [III-101] ?
1000 to 20000 nM

Could you share which Ki value was measured for c1ccc2c(Nc3[nH]nc4ccccc34)nc(N3CCCCC3)nc2c1 [III-143] ?
1000 to 20000 nM

Could you share which Ki value was measured for CC1CCN(c2nc(Nc3cc(C4CC4)n[nH]3)c3ccccc3n2)CC1 [III-111] ?
< 100 nM

Could you share which Ki value was measured for COCc1cc(Nc2nc(-c3ccccc3C(F)(F)F)nc3ccccc23)n[nH]1 [II-56] ?
< 100 nM

====

Each entry below lists one item and its recorded Ki value.
- TESTED_TARGET: GSK-3β (AA 1-420) (Homo sapiens, UniProt P49841)
- Sequence (P49841 whole entry, the tested form may be a part): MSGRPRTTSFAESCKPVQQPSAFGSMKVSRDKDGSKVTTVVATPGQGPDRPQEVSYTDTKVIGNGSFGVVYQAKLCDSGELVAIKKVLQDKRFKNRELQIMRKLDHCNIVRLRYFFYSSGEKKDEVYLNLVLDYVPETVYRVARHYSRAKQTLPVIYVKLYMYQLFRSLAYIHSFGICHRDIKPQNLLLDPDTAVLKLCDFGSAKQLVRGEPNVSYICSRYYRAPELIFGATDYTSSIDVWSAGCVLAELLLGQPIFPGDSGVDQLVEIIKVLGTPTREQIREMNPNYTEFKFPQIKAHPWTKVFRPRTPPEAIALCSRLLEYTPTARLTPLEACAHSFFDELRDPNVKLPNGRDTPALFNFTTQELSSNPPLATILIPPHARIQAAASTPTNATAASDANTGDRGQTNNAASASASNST

Look over these answered cases.
COMPOUND: Cc1cccc(NC(=O)c2cc(Nc3nc(-c4ccccc4)nc4ccccc34)[nH]n2)c1
Ki: 1000 to 20000 nM
//
COMPOUND: CC1CN(c2nc(Nc3[nH]nc4ccccc34)c3ccccc3n2)CC(C)O1 (stereo not drawn)
Ki: 1000 to 20000 nM
//
COMPOUND: Cc1cc(Nc2nc(-c3cccc(CO)c3)nc3ccccc23)[nH]n1
Ki: < 100 nM

Could you now look at the following compound, please?
Could you share which Ki value was measured for `Cc1cc(Nc2nc(-c3ccc(N(C)C)cc3)nc3ccccc23)[nH]n1` ?
100 to 1000 nM

====

GSK-3β (AA 1-420) (Homo sapiens) measurements of pKi, listed per entry.
pKi: −log10 of the molar value.

Could you share which pKi value was measured for `C=CCNC(=O)c1cc(Nc2nc(-c3ccccc3)nc3ccccc23)[nH]n1` ?
6.00 to 7.00

Could you share which pKi value was measured for `Fc1cccc2c(Nc3nc(-c4ccccc4Cl)nc4c3CCCCC4)n[nH]c12` ?
> 7.00

Could you share which pKi value was measured for `Cc1n[nH]c(Nc2nc(-c3ccccc3)nc3ccccc23)c1Br` ?
6.00 to 7.00

Could you share which pKi value was measured for `Fc1cc(F)c2[nH]nc(Nc3nc(-c4ccccc4Cl)nc4c3CCC4)c2c1` ?
> 7.00

Could you share which pKi value was measured for `O=c1cc2[nH]nc(Nc3nc(-c4ccccc4)nc4ccccc34)c2nn1-c1ccc(Oc2ccccc2)cc1` ?
4.70 to 6.00

Could you share which pKi value was measured for `CC(=O)c1ccccc1-c1nc(Nc2cc(C)[nH]n2)c2ccccc2n1` ?
> 7.00

Could you share which pKi value was measured for `Cc1cc(Nc2nc(-c3ccc(Br)cc3)nc3ccccc23)[nH]n1` ?
> 7.00

Could you share which pKi value was measured for `O=c1cc2[nH]nc(Nc3nc(-c4ccccc4)nc4ccccc34)c2nn1-c1cccc(C(F)(F)F)c1` ?
6.00 to 7.00

====

Each entry below lists one item and its recorded melting point value.

SMILES_REPR: c1ccc2c(c1)CCN2c1nc(Nc2cc(C3CC3)n[nH]2)c2ccccc2n1
ATTRIBUTE_MEASURED: melting point
OBSERVED_RESULT: 150 to 153 °C
--
SMILES_REPR: c1ccc2c(c1)CCN(c1nc(Nc3cc(C4CC4)n[nH]3)c3ccccc3n1)C2
ATTRIBUTE_MEASURED: melting point
OBSERVED_RESULT: 182 to 184 °C
--
SMILES_REPR: Cc1cc(Nc2nc(-c3ccc(C#N)cc3)nc3ccccc23)[nH]n1
ATTRIBUTE_MEASURED: melting point
OBSERVED_RESULT: 263 °C
--
SMILES_REPR: CCCc1cc(Nc2nc(-c3ccccc3)nc3ccccc23)[nH]n1
ATTRIBUTE_MEASURED: melting point
OBSERVED_RESULT: 204 to 205 °C
--
SMILES_REPR: OCc1cc(Nc2nc(-c3ccccc3)nc3ccccc23)[nH]n1
ATTRIBUTE_MEASURED: melting point
OBSERVED_RESULT: 238 to 239 °C
--
SMILES_REPR: Cc1cc(Nc2nc(-c3cc(Cl)cc(Cl)c3)nc3ccccc23)[nH]n1
ATTRIBUTE_MEASURED: melting point
OBSERVED_RESULT: 228 °C
--
SMILES_REPR: CC(C)c1cc(Nc2nc(-c3ccccc3)nc3ccccc23)[nH]n1
ATTRIBUTE_MEASURED: melting point
OBSERVED_RESULT: 218 to 219 °C
--
SMILES_REPR: Cc1cc(Nc2nc(N3CCNCC3)nc3ccccc23)[nH]n1
ATTRIBUTE_MEASURED: melting point
OBSERVED_RESULT: 179 to 181 °C
--
SMILES_REPR: Nc1ccc2[nH]nc(Nc3nc(-c4ccccc4C(F)(F)F)nc4ccccc34)c2c1
ATTRIBUTE_MEASURED: melting point
OBSERVED_RESULT: 221 to 223 °C
--
SMILES_REPR: CC(=O)Nc1ccc(Sc2cc(Nc3cc(C)[nH]n3)nc(-c3ccccc3)n2)cc1
ATTRIBUTE_MEASURED: melting point
OBSERVED_RESULT: 235 to 236 °C

Could you now look at the following compound, please?
Could you share which melting point value was measured for `O=C(O)c1cc(Nc2nc(-c3ccccc3)nc3ccccc23)[nH]n1` ?
289 to 291 °C (dec.)

====

GSK-3β (AA 1-420) (Homo sapiens, UniProt P49841) measurements of Ki, listed per entry.

SMILES_REPR: CCSc1ccc(-c2nc(Nc3cc(C)n[nH]3)c3ccccc3n2)cc1
OBSERVED_RESULT: < 100 nM

SMILES_REPR: COc1cccc2c(Nc3n[nH]c4ccccc34)nc(-c3ccccc3C(F)(F)F)nc12
OBSERVED_RESULT: < 100 nM

SMILES_REPR: Cc1cc(Nc2nc(-c3ccccc3)nc3ccccc23)[nH]n1
OBSERVED_RESULT: < 100 nM

SMILES_REPR: COc1cccc(-c2nc(Nc3cc(C)n[nH]3)c3ccccc3n2)c1
OBSERVED_RESULT: < 100 nM

SMILES_REPR: Cc1cc(Nc2nc(-c3cc(C(F)(F)F)cc(C(F)(F)F)c3)nc3ccccc23)[nH]n1
OBSERVED_RESULT: < 100 nM

SMILES_REPR: Cc1ccccc1-c1nc(Nc2n[nH]c3ccccc23)c2ccccc2n1
OBSERVED_RESULT: < 100 nM

SMILES_REPR: Fc1cc(F)c2[nH]nc(Nc3nc(-c4ccccc4C(F)(F)F)nc4c3CCCCCC4)c2c1
OBSERVED_RESULT: < 100 nM

SMILES_REPR: FC(F)(F)c1ccccc1-c1nc(Nc2n[nH]c3cccc(C(F)(F)F)c23)c2ccccc2n1
OBSERVED_RESULT: 1000 to 20000 nM

For the record `Cc1cc(Nc2nc(-c3ccc(F)c(Cl)c3)nc3ccccc23)[nH]n1` , what value of Ki is listed for GSK-3β (AA 1-420) (Homo sapiens, UniProt P49841)?
< 100 nM

====

Each entry below lists one item and its recorded pKi value.
- TESTED_TARGET: activated ERK2 (Homo sapiens)
- Sequence (P28482 whole entry): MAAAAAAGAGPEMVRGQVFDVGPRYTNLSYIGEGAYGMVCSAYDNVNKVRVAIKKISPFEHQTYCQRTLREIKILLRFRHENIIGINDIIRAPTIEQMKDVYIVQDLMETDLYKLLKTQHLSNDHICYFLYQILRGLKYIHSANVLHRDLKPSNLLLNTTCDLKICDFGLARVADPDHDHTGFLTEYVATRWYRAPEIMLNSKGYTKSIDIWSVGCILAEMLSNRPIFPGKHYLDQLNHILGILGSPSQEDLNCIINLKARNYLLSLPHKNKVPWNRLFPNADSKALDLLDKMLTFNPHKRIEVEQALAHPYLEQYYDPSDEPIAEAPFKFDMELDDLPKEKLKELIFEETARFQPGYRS
- ASSAY_NOTES: ERK inhibition assay (spectrophotometric coupled-enzyme assay)
- EXPERIMENTAL_CONDITIONS: 10 nM activated ERK2, 65 μM ATP, 200 μM erktide; read-out: Ki value for ERK-2
pKi: −log10 of the molar value.

Look over these answered cases.
SMILES_REPR: Cc1cc(Nc2nc(N3CCCCC3)nc3ccccc23)[nH]n1
pKi: 4.92 to 6.00
//
SMILES_REPR: CC1CCN(c2nc(Nc3cc(C4CC4)n[nH]3)c3ccccc3n2)CC1
pKi: > 6.00
//
SMILES_REPR: OC1(c2ccccc2)CCN(c2nc(Nc3cc(C4CC4)n[nH]3)c3ccccc3n2)CC1
pKi: > 6.00
//
SMILES_REPR: c1ccc(-c2nc(Nc3cc(C4CC4)n[nH]3)c3ccccc3n2)cc1
pKi: 4.92 to 6.00
//
SMILES_REPR: c1ccc(-c2nc(Nc3ccn[nH]3)c3ccccc3n2)cc1
pKi: 4.92 to 6.00
//
SMILES_REPR: c1ccc2c(c1)CCN(c1nc(Nc3cc(C4CC4)n[nH]3)c3ccccc3n1)C2
pKi: > 6.00
//
SMILES_REPR: Cc1cc(Nc2nc(N3CCCCCC3)nc3ccccc23)[nH]n1
pKi: > 6.00
//
SMILES_REPR: c1ccc2c(Nc3cc(C4CC4)n[nH]3)nc(N3CCCCCC3)nc2c1
pKi: > 6.00

Could you now look at the following compound, please?
For the record `OCC1CCN(c2nc(Nc3cc(C4CC4)n[nH]3)c3ccccc3n2)CC1` , what value of pKi is listed for activated ERK2 (Homo sapiens)?
> 6.00
